# assay.name: inhibitors of Chlamydomonas gravitaxis, primary screen, whole organism, Chlamydomonas reinhardtii, WT vs cilia-less mutant, absorbance, 96-well (AID 463189);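 further: 0% = wild type cc124 cells in DMSO and 100% = ciliumless bld1 mutant cells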
# assay.setup: OD600 absorbance, 2 days, at 10 µM, active compounds read high
readout.name: inhibition (%)
Give bare numbers, in %.

The following compounds have reported results that may help.
O=C1c2ccccc2C(=O)N1CCN1CCc2ccccc21	-3.59
CC1(C2(O)CC(c3ccccc3)ON2)CCCCC1 (configuration not stated)	9.38
Cc1csc2nc(CSc3nc4ccccc4o3)cn12	5.29
CCOC(=O)c1[nH]c2ccc(Br)cc2c1NC(=O)CCN1CCC(C(=O)OCC)CC1	15.3

Go through the list and state inhibition for each entry.
1. c1coc(-c2nnc3sc(-c4cccs4)nn23)c1
2. CCN(CC)CCCn1c(C)cc2c(c1=O)C(c1ccc(OC)c(OC)c1OC)C(C#N)=C(N)O2 (configuration not stated)
3. CCCCC[C@H](O)/C=C/[C@H]1C=CC(=O)[C@@H]1C/C=C\CCCC(=O)O
4. CCOP(=O)(c1ccccc1)c1nc(-c2ccccc2C)oc1N1CCCCC1 (configuration not stated)

Reply:
1. 3.53
2. -3.45
3. 5.58
4. 56.6
